Each item that follows carries a reported interaction score.
Target: T1, 4H48-AA
T1 chain: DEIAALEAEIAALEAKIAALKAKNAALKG
Assay: two-hybrid library CCmax;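 further: natural log of median RNA to DNA barcode read ratio; higher means stronger binding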
Conditions: mean of both orientations
Give the figure by itself; no unit, no explanation.

These solved cases illustrate the format of a correct answer.
{"binder": "DEIAALEAKNAALEAKIAALKAKIAALEG [4H429-AA]", "property-name": "interaction score", "number": -0.728}
{"binder": "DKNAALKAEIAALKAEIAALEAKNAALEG [4H3655-AA]", "property-name": "interaction score", "number": 0.736}
{"binder": "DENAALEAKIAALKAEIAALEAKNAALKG [4H1352-AA]", "property-name": "interaction score", "number": -0.096}

Turning now to a further binder:
Note down interaction score recorded for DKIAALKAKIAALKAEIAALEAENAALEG [4H2883-AA]
2.1
